B1: CPEB3 Ribozyme (parent)
chain: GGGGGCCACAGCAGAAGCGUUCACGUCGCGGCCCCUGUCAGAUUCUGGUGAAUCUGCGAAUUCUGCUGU

# Variants of: B1
# measurement protocol: self-cleavage, relative activity (ratio to wild type); higher = more cleavage; co-transcriptional
Recorded self-cleavage for the following variants
# answer = number (no unit)

// solved cases for self-cleavage follow
1) G19U A52U    0.474
2) G4C A52C    0.38
3) C35A G58U    0.286
4) C18A U67C    0.23
5) A15G U38C    0.97

Please look at this variant and report its self-cleavage: G14C C39U
0.286

Give recorded self-cleavage. G41C U69C
1.01

Recall and state the measured self-cleavage for A51G G56U .
0.95

Kindly indicate its recorded self-cleavage. Item: C22A C63G
0.114

For C22U U44A , write its self-cleavage.
0.318

Input C6A C39U , output reported self-cleavage.
0.416

Tell me its self-cleavage given G2U G19U as the entry.
0.0651

Supply reported self-cleavage belonging to this variant: G30A U46A
0.723

Return the recorded self-cleavage value; entry: U36A G56C
0.201

Give me measured self-cleavage, please, for this variant: G4U G41C
0.126

Identify measured self-cleavage corresponding to G14C U46A
0.651

Give a short answer stating reported self-cleavage for G11C C18U .
0.246

Supply self-cleavage value. Item: G47C U61G
0.937

Note down self-cleavage recorded for U43A C54A
0.599

For the variant C7A C29G , give its measured self-cleavage value.
0.12

Return reported self-cleavage. Input variant: G2C G19U
0.0175

Give recorded self-cleavage. U55A A59G
0.981

Tell me measured self-cleavage for C6A U69G please.
0.838

Output self-cleavage of C7G A16U
0.0326

For the variant U36G U44A , report self-cleavage.
0.246
